Test system: MS2 coat protein
test_description: apparent KD of MS2 coat protein; designed switch direction (-1 OFF switch, 1 ON switch): -1; higher = weaker reporter binding
condition_summary: input ligand: none
quantity: apparent KD of MS2 coat protein

Answered examples (10):
# record_sequence, system_name, result
measured = [
    ("UAUCUUCAUAUCACAUGAGGAUCACCCAUGUUAUUCAUCUCGUAGGAUAUCGAGGUUUUUUUUUUCGAGAAGGACGUAUUGUUU [JR_ExcNG3_Sub078] (Eterna round: R96, puzzle: Exclusion NG 3)", "MS2 coat protein", "180 nM"),
    ("GUCAGGAAAGGAUAUACAAGUAGUCACUCUCUUUGCAGUUCACAUGAGGAUCACCCAUGUAGAAGGUUCGGACG [EX2 C.9] (Eterna round: R97, puzzle: Exclusion 2)", "MS2 coat protein", "14.1 nM"),
    ("AAGGGUGCCUUUAGAACGACAUGAGGAUCACCCAUGUAGACUGAGGAUAUCUACUCCUAAGGACCGGAGAAGGCAGUGUAAUGC [Ex NG3 #63] (Eterna round: R96, puzzle: Exclusion NG 3)", "MS2 coat protein", "58.9 nM"),
    ("AAUAACAGAGGAUAUGCGAAUAAAUAAAACUUUUUUUUUUAACAUGAGGAUCACCCAUGUAGAAGGCUGAUAUU [Ex2 #21] (Eterna round: R97, puzzle: Exclusion 2)", "MS2 coat protein", "37 nM"),
    ("AGACACUUAGGAUAUCAGGCAAUGCACAUGAGGAUCACCCAUGUGGUCUUGGUCCGGGACUGAGAAGGAAGAGUCC [EX5 B.10] (Eterna round: R97, puzzle: Exclusion 5)", "MS2 coat protein", "19 nM"),
    ("ACAUGAGGAUCACCCAUGUCCGUCUGGUCUGUCUCGGCUGUCGAGGAUAUAGCCCGGUAUCCGCGCUAGAAGGUGGGAGUCGGC [Aenatbe mod 98] (Eterna round: R96, puzzle: Exclusion NG 3)", "MS2 coat protein", "37.3 nM"),
    ("GCGUACAGCCUAAGCAGUGACAUGAGGAUCACCCAUGUACGAACGUUUACCAAGCUUGUCUUAAUACCAUUAUAAAU [Eternabot (L1) Solution 20] (Eterna round: R97, puzzle: Sensor, turn-off variant 1)", "MS2 coat protein", "28.9 nM"),
    ("UGGCUUUGAGGAUAUACAUUGAAUAAGAUUCAUGUAAAACUACAUGAGGAUCACCCAUGUAGAAGGCAAGGCCU [Mat - Exclusion 2 - JL Mod - D74] (Eterna round: R97, puzzle: Exclusion 2)", "MS2 coat protein", "16 nM"),
    ("UAGUAUCUUCAGGAUAUCAGUGGAAAACACGUAUGAGAAGGGAAGACAUGAGGAUCACCCAUGUAAAGGGUCCG [BotMod 11 - Jieux - Exclusion 6] (Eterna round: R97, puzzle: Exclusion 6)", "MS2 coat protein", "203 nM"),
    ("GCGCCAUCGUGAGAUGGCGUAUAAACAUGAGGAUCACCCAUGUAGGAUAUCGAUUGCUUUGCAGUCGAGAAGGGCAUUAUAAGU [JL ENG3 3.75] (Eterna round: R96, puzzle: Exclusion NG 3)", "MS2 coat protein", "28.4 nM"),
]

Given the entry GCACGGAUUGUAGGAUAUCUGUGCGAUUAGCUCAGAGAAGGACACAUGAGGAUCACCCAUGUUACCUCAAUUGGCCUUCCGUGC [Eli exng1 - 031] (Eterna round: R96, puzzle: Exclusion NG 1) , report its measured apparent KD of MS2 coat protein. 116 nM

Thanks! And UUUUUAUAUGAAGGAUAUACUUAACAUGAGGAUCACCCAUGUGGUGUUGUGAGUGAGUGAGUUUAGUAGAAGGUCAAGUAUUCU [JMF's solution 40] (Eterna round: R96, puzzle: Exclusion NG 2) ? 496 nM

Query UCCGGACAUGAGGAUCACCCAUGUCAGGAUAUACCCGAGGCAGCAAACACGCUAGCCAGUAGAAGGGACAUGGU [Geenma] (Eterna round: R97, puzzle: Exclusion 1) next 20.7 nM

Entry to check: AUUAUGUUAGGAUAUGCUUAUGGUGGAUAGUCCAGUAUGGUGCAGAAGGGACAUGAGGAUCACCCAUGUGCUGA [EX4 #32] (Eterna round: R97, puzzle: Exclusion 4) 52.8 nM

// repeat for UAUGGUUAAGUCAGGAUAUACAUACAGAUAUCUGAGUAGAAGGGACAUGAGGAUCACCCAUGUAUGGUAGUGUU [Ex4 #54] (Eterna round: R97, puzzle: Brourd's mod of Exclusion 4) and report 76.3 nM

Can you check CAGUACUGAGGAUAUACAUGAGGAUCACCCAUGUGUUCCUGCUAGGAAACUAGCAAGGGUAGAAGGCAGUACUG [Salish 065 m4] (Eterna round: R97, puzzle: Exclusion 3) next? 16.4 nM

Could you do the same for AAAUGAAAGGCAGGAUAUCGUACUGAUCUUUGUCGAGAAGGGCCAGGGUCCCUCGGCUACAUGAGGAUCACCCAUGUUAAAAGA [Onabele] (Eterna round: R96, puzzle: Exclusion NG 1) , please? 36.2 nM

Could you do the same for GUACAUUUAGGAUAUACGGCAGCCAAUGCAAGGGUUCUAUAACAUGAGGAUCACCCAUGUAGAAGGAGAGGGCG [Eternabot (L2) Solution 21] (Eterna round: R97, puzzle: Exclusion 2) , please? 55.2 nM

Cool, now GAUGGACAUGAGGAUCACCCAUGUAAGGAUAUUGAUUAUGGUUAUAAAUAAUUAUGGUCAAGAAGGUACUCGUC [-17.8, -14.8 kcal, A 34%] (Eterna round: R97, puzzle: Exclusion 1) 147 nM
